# Tested on: E. coli ATCC 25922
# Assay explanation: microbe, parasite or virus in culture
# Settings: Escherichia coli, ATCC25922, Nunc PS plate; MHB +0.002% T80; n = 2
Recorded MIC values for a group of compounds are listed next.

Take a look at these entries with their results.
Structure string: CC1(C)S[C@@H]2[C@H](NC(=O)Cc3ccccc3)C(=O)N2[C@H]1C(=O)O
MIC: 64 µg/mL

Structure string: Cc1onc(-c2ccccc2)c1C(=O)N[C@@H]1C(=O)N2[C@@H]1SC(C)(C)[C@@H]2C(=O)O
MIC: > 64 µg/mL

Structure string: CO[C@H]1/C=C/O[C@@]2(C)Oc3c(C)c(O)c4c(O)c(c(/C=N/N5CCN(C)CC5)c(O)c4c3C2=O)NC(=O)/C(C)=C\C=C\[C@H](C)[C@H](O)[C@@H](C)[C@@H](O)[C@@H](C)[C@H](OC(C)=O)[C@@H]1C
MIC: 4 to 8 µg/mL

Please find the next compound below.
Asked: Which MIC is reported with E. coli ATCC 25922 for this entry: `COc1cc(Cc2cnc(N)nc2N)cc(OC)c1OC` ?
Given back: 0.25 to 0.5 µg/mL

* * *

The molecules listed here are annotated with their MIC.
# Test system: E. coli ATCC 25922
# Assay explanation: microbe, parasite or virus in culture
# Settings: Escherichia coli, ATCC25922, Corning TC; MH; 2% LS; n = 2

Structure string: COc1cc(Cc2cnc(N)nc2N)cc(OC)c1OC
MIC: 1 to 2 µg/mL

Structure string: O=C(O)c1cn(C2CC2)c2cc(N3CCNCC3)c(F)cc2c1=O
MIC: ≤ 0.03 µg/mL

With those in mind, consider the next molecule.
Asked: Requested field: MIC. Item: `Cc1onc(-c2ccccc2)c1C(=O)N[C@@H]1C(=O)N2[C@@H]1SC(C)(C)[C@@H]2C(=O)O`
Given back: > 64 µg/mL

* * *

Measured MIC by item
# Test system: E. coli ATCC 25922
# Assay explanation: microbe, parasite or virus in culture
# Settings: Escherichia coli, ATCC25922, Corning NBS; MH; 2% LS; n = 2

Solved entries (count: 2):
Structure string: COc1cc(Cc2cnc(N)nc2N)cc(OC)c1OC
Assayed system: E. coli ATCC 25922
MIC: 1 to 2 µg/mL
--
Structure string: O=C(O)c1cn(C2CC2)c2cc(N3CCNCC3)c(F)cc2c1=O
Assayed system: E. coli ATCC 25922
MIC: ≤ 0.03 µg/mL

Let's switch to this compound now.
Asked: Item `Cc1onc(-c2ccccc2)c1C(=O)N[C@@H]1C(=O)N2[C@@H]1SC(C)(C)[C@@H]2C(=O)O` with E. coli ATCC 25922 - MIC?
Given back: > 64 µg/mL

* * *

# Test system: E. coli ATCC 25922
# Assay explanation: microbe, parasite or virus in culture
# Settings: Escherichia coli, ATCC25922, 24 h, Corning NBS; MH + T80; 2% LS; n = 2
Readout name: MIC

The examples below pair each entry with its known result.
Structure string: Cc1onc(-c2ccccc2)c1C(=O)N[C@@H]1C(=O)N2[C@@H]1SC(C)(C)[C@@H]2C(=O)O
MIC: > 64 µg/mL
--
Structure string: CO[C@H]1/C=C/O[C@@]2(C)Oc3c(C)c(O)c4c(O)c(c(/C=N/N5CCN(C)CC5)c(O)c4c3C2=O)NC(=O)/C(C)=C\C=C\[C@H](C)[C@H](O)[C@@H](C)[C@@H](O)[C@@H](C)[C@H](OC(C)=O)[C@@H]1C
MIC: 4 to 8 µg/mL

Asked: Requested field: MIC. Item: `O=C(O)c1cn(C2CC2)c2cc(N3CCNCC3)c(F)cc2c1=O`
Given back: ≤ 0.03 µg/mL

* * *

# key: entry, value: MIC
# System: E. coli ATCC 25922
# Assay explanation: microbe, parasite or virus in culture
# Settings: Escherichia coli, ATCC25922, Corning NBS; MH; 50% HS; n = 2

Completed entries (count: 2):
Structure string: O=C(O)c1cn(C2CC2)c2cc(N3CCNCC3)c(F)cc2c1=O
Observed value: ≤ 0.03 µg/mL

Structure string: Cc1onc(-c2ccccc2)c1C(=O)N[C@@H]1C(=O)N2[C@@H]1SC(C)(C)[C@@H]2C(=O)O
Observed value: > 64 µg/mL

Please find the next compound below.
Asked: // lookup MIC for `COc1cc(Cc2cnc(N)nc2N)cc(OC)c1OC`
Given back: 1 to 2 µg/mL

* * *

# Tested on: E. coli ATCC 25922
# Assay explanation: microbe, parasite or virus in culture
# Settings: Escherichia coli, ATCC25922, Corning TC; MH; 50% HS; n = 2
Readout name: MIC

Structure string: O=C(O)c1cn(C2CC2)c2cc(N3CCNCC3)c(F)cc2c1=O
MIC: ≤ 0.03 µg/mL

Asked: For `Cc1onc(-c2ccccc2)c1C(=O)N[C@@H]1C(=O)N2[C@@H]1SC(C)(C)[C@@H]2C(=O)O` , what is its reported MIC?
Given back: > 64 µg/mL

Asked: # lookup: MIC of `COc1cc(Cc2cnc(N)nc2N)cc(OC)c1OC`
Given back: 0.5 to 1 µg/mL

* * *

# Tested on: E. coli ATCC 25922
# Assay explanation: microbe, parasite or virus in culture
# Settings: Escherichia coli, ATCC25922, 24 h, Corning NBS; MH + T80; 50% HS; n = 2
Listed below: MIC values for each entry.

The examples below pair each entry with its known result.
Compound: CC1(C)S[C@@H]2[C@H](NC(=O)Cc3ccccc3)C(=O)N2[C@H]1C(=O)O [Penicillin G, penicillin G]
Assayed system: E. coli ATCC 25922
MIC: 32 to 64 mg/L

Compound: O=C(O)c1cn(C2CC2)c2cc(N3CCNCC3)c(F)cc2c1=O [Ciprofloxacin, ciprofloxacin]
Assayed system: E. coli ATCC 25922
MIC: ≤ 0.03 mg/L

Kindly review the next compound as well.
Asked: May I ask what MIC has been recorded for Cc1onc(-c2ccccc2)c1C(=O)N[C@@H]1C(=O)N2[C@@H]1SC(C)(C)[C@@H]2C(=O)O [Oxacillin, oxacillin] ?
Given back: > 64 mg/L

* * *

Entries and their MIC
# Test system: E. coli ATCC 25922
# Assay explanation: microbe, parasite or virus in culture
# Settings: Escherichia coli, ATCC25922, Trek PS plate; MHB −T80, no additive; n = 2

Structure string: O=C(O)c1cn(C2CC2)c2cc(N3CCNCC3)c(F)cc2c1=O
Readout name: MIC
Observed value: ≤ 0.03 µg/mL
//
Structure string: Cc1onc(-c2ccccc2)c1C(=O)N[C@@H]1C(=O)N2[C@@H]1SC(C)(C)[C@@H]2C(=O)O
Readout name: MIC
Observed value: > 64 µg/mL

Moving on to another compound below.
Asked: Kindly state the measured MIC obtained for `COc1cc(Cc2cnc(N)nc2N)cc(OC)c1OC` with E. coli ATCC 25922.
Given back: 0.5 to 1 µg/mL
